Substrate: p-NP-C4
Conditions: pH 7; 37 °C
// reported kcat/Km per item
Write down the numeric answer in M⁻¹ s⁻¹ and omit the unit.

# example entries with known answers
PROTEIN	OBSERVED_PROPERTY	QUANTITATIVE_READOUT
unnamed (protein) MMNFNNVFRWHLPFLFLVLLTFRAAAADTLLILGDALSAGYRMSASAAWPALLNDKWQSKTSVVNASISGDTSQQGLARLPALLKQHQPRWVLVELGGNDGLRGFQPQQTEQTLRQILQDVKAANAEPLLMQIRLPANYGRRYNEAFSAIYPKLAKEFDVPLLPFFMEEVYLKPQWMQDDGIHPNRDAQPFIADWMAKQLQPLVNHDS	kcat/Km	103
unnamed (protein) MMNFNNVFRWHLPFLFLVLLTFRAAAADTLLILGDSLSAGYRMSASAAWPALLNDKWQSKTSVVNASISADTSQQGLARLPALLKQHQPRWVLVELGGNDGLRGFQPQQTEQTLRQILQDVKAANAEPLLMQIRLPANYGRRYNEAFSAIYPKLAKEFDVPLLPFFMEEVYLKPQWMQDDGIHPNRDAQPFIADWMAKQLQPLVNHDS	kcat/Km	2870

Briefly, kcat/Km measured for unnamed (protein) MMNFNNVFRWHLPFLFLVLLTFRAAAADTLLILGDSLSAGYRMSASAAWPALLNDKWQSKTSVVNASISGDTSQQGLARLPALLKQHQPRWVLVELGGNDGLRGFQPQQTEQTLRQILQDVKAANAEPLLMQIRLPANYGRRYNEAFSAIYPKLAKEFDVPLLPFFMEEVYLKPQWMQDAGIHPNRDAQPFIADWMAKQLQPLVNHDS : 3180
